biological target: cdk2/cyclinE (Homo sapiens, UniProt P24941); assay: Cyclin-Dependent Kinase Assay cdk2/cyclinE; settings: cdk2/E IC50
measurement-kind: IC50 (µM)
Give bare numbers, in µM.

As a guide, the following entries are already answered.
>>> observed("Cn1c(=O)ccc2cnc(Nc3ccc4[nH]ccc4c3)nc21")
0.917
>>> observed("CCCCn1c(=O)ccc2cnc(Nc3ccc(C)c(Cl)c3)nc21")
0.056
>>> observed("Cc1cc(Nc2ncc3ccc(=O)n(C(C)C)c3n2)ccc1Br")
3.6
>>> observed("Cc1cc(Nc2ncc3ccc(=O)n(C(C)C)c3n2)ccc1F")
0.11
>>> observed("CC(C)n1c(=O)ccc2cnc(Nc3ccc(S(N)(=O)=O)cc3)nc21")
0.027
>>> observed("CC(C)n1c(=O)ccc2cnc(Nc3ccc(C(F)(F)F)cc3)nc21")
0.17
>>> observed("CCC(CC)n1c(=O)ccc2cnc(Nc3ccc(F)c(F)c3)nc21")
0.064
>>> observed("CCn1c(=O)ccc2cnc(Nc3ccc(F)c(C(F)(F)F)c3)nc21")
0.25

Please look at the following compound next.
The compound O=c1ccc2cnc(Nc3ccc4[nH]ncc4c3)nc2n1C1CCCC1 showed IC50 equal to 0.014

###

target: cdk4/D (Homo sapiens); experiment: Cyclin-Dependent Kinase 4 (cdk4) Assay; format: biochemical; settings: read-out: cdk4/D IC50
Sequence (P11802 whole entry): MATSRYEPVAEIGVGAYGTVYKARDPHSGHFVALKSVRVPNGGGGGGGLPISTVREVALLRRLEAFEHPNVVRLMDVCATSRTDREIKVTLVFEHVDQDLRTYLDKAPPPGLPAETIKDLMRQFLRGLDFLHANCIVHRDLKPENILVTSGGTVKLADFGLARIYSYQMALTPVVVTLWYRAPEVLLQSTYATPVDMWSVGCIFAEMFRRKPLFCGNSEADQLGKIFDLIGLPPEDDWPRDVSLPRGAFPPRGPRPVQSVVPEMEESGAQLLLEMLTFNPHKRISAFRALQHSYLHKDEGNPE
Sequence (P24385 whole entry, further chain): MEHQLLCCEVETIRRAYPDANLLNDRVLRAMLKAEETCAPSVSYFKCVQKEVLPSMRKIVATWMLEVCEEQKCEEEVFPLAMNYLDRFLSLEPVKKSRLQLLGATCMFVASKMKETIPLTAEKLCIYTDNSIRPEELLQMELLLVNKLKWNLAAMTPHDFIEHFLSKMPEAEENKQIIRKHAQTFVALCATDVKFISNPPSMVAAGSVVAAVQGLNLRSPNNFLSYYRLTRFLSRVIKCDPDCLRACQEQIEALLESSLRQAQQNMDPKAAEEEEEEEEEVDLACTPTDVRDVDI
Provide the reported pIC50 of each item.
Numbers only, as −log10 of the molar value.

# per-item lookup of pIC50; items listed below
1. CCC(CC)n1c(=O)ccc2cnc(Nc3ccc(F)c(Cl)c3)nc21
2. CCC(CC)n1c(=O)ccc2cnc(Nc3ccc4[nH]c(=O)[nH]c4c3)nc21
3. CCCCn1c(=O)ccc2cnc(Nc3ccc(Br)c(C(F)(F)F)c3)nc21

[A]
[6.03, 7.60, 5.53]

# batch size: 5; output pIC50 per entry
1. CCC(CC)n1c(=O)ccc2cnc(Nc3ccc(Cl)c(C)c3)nc21
2. CC(C)n1c(=O)ccc2cnc(Nc3cc(Cl)c(O)c(Cl)c3)nc21
3. CC(C)n1c(=O)ccc2cnc(Nc3ccc(S(N)(=O)=O)cc3)nc21
4. CCCn1c(=O)ccc2cnc(Nc3ccc4[nH]nnc4c3)nc21
5. CCCCn1c(=O)ccc2cnc(Nc3ccc4[nH]nnc4c3)nc21

[A]
1. 7.01
2. 5.70
3. 6.89
4. 6.78
5. 6.55

The compound identified as CCC(CC)n1c(=O)ccc2cnc(Nc3cc(F)c(NC(C)=O)c(Cl)c3)nc21 registered its pIC50 at 6.60

###

I'd be grateful if you could share measured pIC50 for these entries.
molecular target: cdc2/cyclinB (Homo sapiens); assay: Cyclin-Dependent Kinase Assay cdc2/cyclinB
Numbers only, as −log10 of the molar value.

In the examples that follow, each entry is paired with its recorded pIC50.
>>> observed("O=c1ccc2cnc(Nc3ccc(O)c(Cl)c3)nc2n1CC(F)(F)F")
6.36
>>> observed("Cc1cc(Nc2ncc3ccc(=O)n(CC4CC4)c3n2)cc(C)c1O")
6.92
>>> observed("O=c1ccc2cnc(Nc3ccc(O)c(CN4CCOCC4)c3)nc2n1C1CCCC1")
6.29

Would you mind giving pIC50 for every compound in the list below?
1. O=c1ccc2cnc(Nc3cccc(C(F)(F)F)c3)nc2n1C1CCCC1
2. CCC(C)n1c(=O)ccc2cnc(Nc3cccc([N+](=O)[O-])c3)nc21 (stereo not drawn)
3. CCCn1c(=O)ccc2cnc(Nc3ccc(I)c(Cl)c3)nc21
4. CC(C)n1c(=O)ccc2cnc(Nc3cccc(S(N)(=O)=O)c3)nc21

[A]
1. 6.66
2. 7.29
3. 6.44
4. 6.74

Could I get pIC50 for every one of these entries?
1. CCn1c(=O)ccc2cnc(Nc3ccc4[nH]ncc4c3)nc21
2. CCCn1c(=O)ccc2cnc(Nc3cccc([N+](=O)[O-])c3)nc21
3. CCCn1c(=O)ccc2cnc(Nc3cccc(NC(C)=O)c3)nc21
4. CCC(CC)n1c(=O)ccc2cnc(Nc3ccc(C#N)c(NC(C)=O)c3)nc21

[A]
1. 6.56
2. 6.03
3. 6.15
4. 6.96

Batch of 7 compounds: report pIC50 for each.
1. CCC(CC)n1c(=O)ccc2cnc(Nc3cc(Cl)c(N)c(Cl)c3)nc21
2. CCC(CC)n1c(=O)ccc2cnc(Nc3ccc(Cl)c(C)c3)nc21
3. CCC(CC)n1c(=O)ccc2cnc(Nc3cccc([N+](=O)[O-])c3)nc21
4. CCCCn1c(=O)ccc2cnc(Nc3ccc(F)c(F)c3)nc21
5. COc1cc(Nc2ncc3ccc(=O)n(CC4CC4)c3n2)cc(OC)c1OC
6. CC(=O)Nc1cc(Nc2ncc3ccc(=O)n(C4CCCC4)c3n2)ccc1C
7. CCC(C)n1c(=O)ccc2cnc(Nc3ccc(F)c([N+](=O)[O-])c3)nc21 (stereo not drawn)

[A]
[7.17, 6.96, 7.31, 6.54, 6.25, 6.29, 5.96]

###

target: cdc2/cyclinB (Homo sapiens, UniProt P06493); assay: Cyclin-Dependent Kinase Assay cdc2/cyclinB
Sequence (P06493 whole entry): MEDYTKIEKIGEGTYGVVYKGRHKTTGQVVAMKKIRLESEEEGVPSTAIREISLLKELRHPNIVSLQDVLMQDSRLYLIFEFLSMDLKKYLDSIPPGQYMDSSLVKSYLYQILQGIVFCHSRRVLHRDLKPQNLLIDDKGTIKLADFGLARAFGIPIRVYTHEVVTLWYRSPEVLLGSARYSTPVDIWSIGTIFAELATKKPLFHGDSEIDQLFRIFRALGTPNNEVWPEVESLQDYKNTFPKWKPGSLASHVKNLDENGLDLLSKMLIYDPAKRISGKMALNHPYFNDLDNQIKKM
Sequence (P14635 whole entry, further chain): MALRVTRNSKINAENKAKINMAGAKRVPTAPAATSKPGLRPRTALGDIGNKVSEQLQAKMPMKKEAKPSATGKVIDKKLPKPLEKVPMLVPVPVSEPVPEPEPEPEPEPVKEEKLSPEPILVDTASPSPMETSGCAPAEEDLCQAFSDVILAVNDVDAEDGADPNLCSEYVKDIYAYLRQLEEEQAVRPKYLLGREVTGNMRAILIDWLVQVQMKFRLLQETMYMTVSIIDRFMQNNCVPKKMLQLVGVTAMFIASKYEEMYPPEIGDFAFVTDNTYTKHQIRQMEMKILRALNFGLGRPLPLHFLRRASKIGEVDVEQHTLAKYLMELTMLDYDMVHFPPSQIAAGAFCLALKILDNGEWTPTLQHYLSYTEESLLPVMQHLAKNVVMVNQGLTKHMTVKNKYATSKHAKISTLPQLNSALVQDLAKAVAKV
Mark label 1 only when IC50 stays strictly below 200 nM. Values equal to the cut-off are label 0.

>>> discrete_label("CCC(C)n1c(=O)ccc2cnc(Nc3ccc(OC)c(OC)c3)nc21 (stereo not shown)")
"label 1"
>>> discrete_label("CCC(C)n1c(=O)ccc2cnc(Nc3cc([N+](=O)[O-])ccc3F)nc21 (stereo not shown)")
"label 0"
>>> discrete_label("CCCn1c(=O)ccc2cnc(Nc3ccc(Cl)c(Cl)c3)nc21")
"label 0"
>>> discrete_label("Cc1ccc(Nc2ncc3ccc(=O)n(CC4CC4)c3n2)cc1NS(C)(=O)=O")
"label 0"
>>> discrete_label("O=c1ccc2cnc(Nc3ccc(F)cc3)nc2n1C1CC2CCC1C2 (stereo not shown)")
"label 1"
>>> discrete_label("CCC(C)n1c(=O)ccc2cnc(Nc3ccc4[nH]nnc4c3)nc21 (stereo not shown)")
"label 1"
>>> discrete_label("CCC(CC)n1c(=O)ccc2cnc(Nc3ccc(OC(F)(F)F)cc3)nc21")
"label 0"
>>> discrete_label("CCC(C)n1c(=O)ccc2cnc(Nc3ccccc3)nc21 (stereo not shown)")
"label 0"

Turning to the following molecule.
[Q] Bench note: check whether O=c1ccc2cnc(Nc3ccc(N4CCCC(CCCO)C4)cc3)nc2n1C1CC2CCC1C2 (stereo not shown) shows IC50 below 200 nM
[A] label 0

###

Record form. Attribute: pIC50. Fill in for each entry.
target: cdk2/cyclinA (Homo sapiens, UniProt P24941); experiment: Cyclin-Dependent Kinase Assay cdk2/cyclinA; conditions: cdk2/A IC50
One number for each entry, as −log10 of the molar value.

These recorded examples may help you get a feel for the data.
>>> observed("CCC(C)n1c(=O)ccc2cnc(Nc3ccc(I)c(Cl)c3)nc21 (stereo not drawn)")
6.51
>>> observed("CCCn1c(=O)ccc2cnc(Nc3ccc(OC)c(F)c3)nc21")
6.47
>>> observed("Cc1cc(Nc2ncc3ccc(=O)n(CC4CC4)c3n2)cc(C)c1O")
6.77
>>> observed("CCC(C)n1c(=O)ccc2cnc(Nc3ccc(OC)c(OC)c3)nc21 (stereo not drawn)")
6.94
>>> observed("O=c1ccc2cnc(Nc3ccc4[nH]ccc4c3)nc2n1CC(F)(F)F")
5.57
>>> observed("Cc1cc(Nc2ncc3ccc(=O)n(C(C)C)c3n2)ccc1F")
6.82

# batch: return pIC50 for each of the 3 compounds below
1. O=c1ccc2cnc(Nc3ccc(O)c(Cl)c3)nc2n1CC1CC1
2. CC(C)n1c(=O)ccc2cnc(Nc3ccc(S(N)(=O)=O)cc3)nc21
3. O=c1ccc2cnc(Nc3ccc(O)cc3F)nc2n1CC1CC1

[A]
1: 7.26; 2: 7.48; 3: 6.21

###

Consider the following compounds; for each one, report its pIC50.
target: cdc2/cyclinB (Homo sapiens, UniProt P06493); experiment: Cyclin-Dependent Kinase Assay cdc2/cyclinB
One number for each entry, as −log10 of the molar value.

>>> observed("O=c1ccc2cnc(Nc3ccccc3)nc2n1CC(F)(F)F")
5.78
>>> observed("CCC(CC)n1c(=O)ccc2cnc(Nc3ccc4c(c3)CCC4)nc21")
7.00
>>> observed("CCC(C)n1c(=O)ccc2cnc(Nc3cccc(C(F)(F)F)c3)nc21 (stereo not shown)")
6.77

Read the next record carefully.
Reported pIC50 for O=c1ccc2cnc(Nc3ccc(-n4cccc4)cc3)nc2n1C1CCCCC1 was 6.35

###

molecular target: Cdk5/p25 (Homo sapiens); assay: Cyclin-Dependent Kinase 5 (cdk5) Assay; format: biochemical; conditions: Table 1
Would you mind telling me the reported IC50 of each entry?
Numbers only, in nM.

Completed entries (count: 5):
>>> observed("CC(C)n1c(=O)ccc2cnc(Nc3ccc(N4CCN(C)CC4)cc3)nc21")
17
>>> observed("CN(C)CCCN1CCN(c2ccc(Nc3ncc4ccc(=O)n(C5CCCCC5)c4n3)cc2)CC1")
39.4
>>> observed("O=c1ccc2cnc(Nc3ccccc3)nc2n1C1CC1")
493
>>> observed("O=c1ccc2cnc(Nc3ccc(N4CCCC(CCCO)C4)cc3)nc2n1C1CC2CCC1C2 (stereo not drawn)")
395
>>> observed("O=c1ccc2cnc(Nc3ccccc3)nc2n1C1CCCC1")
26

Batch: IC50 for all items listed.
1. CCn1c(=O)ccc2cnc(Nc3ccc(OCCOC)cc3)nc21
2. CC1CN(c2ccc(Nc3ncc4ccc(=O)n(C5CCCCC5)c4n3)cc2)CC(C)N1 (stereo not drawn)
3. CCN(CC)CCOc1ccc(Nc2ncc3ccc(=O)n(C4CCCCC4)c3n2)cc1
4. CCn1c(=O)ccc2cnc(Nc3cccc(OC(F)(F)C(F)F)c3)nc21

[A]
1: 218; 2: 17.3; 3: 25.9; 4: 568
